Data credit: ChEMBL document CHEMBL1275582

# log10 of kcat values compiled below
- Test system: Escherichia coli
- experimentalProtocol: Activity of Escherichia coli TOP10 beta-lactamase AmpC-B2
Response schema: value (number) is log10 of kcat in units of s⁻¹.

Solved entries:
# compound CC(=O)OCC1=C(C(=O)O)N2C(=O)[C@@H](NC(=O)Cc3cccs3)[C@H]2SC1 ; its log10 of kcat = 2.73

# compound O=C(Cc1cccs1)N[C@@H]1C(=O)N2C(C(=O)[O-])=C(C[n+]3ccccc3)CS[C@H]12 ; its log10 of kcat = 2.38

# compound CO/N=C(\C(=O)N[C@@H]1C(=O)N2C(C(=O)O)=C(COC(C)=O)CS[C@H]12)c1csc(N)n1 ; its log10 of kcat = -1.00

# compound CO[C@@]1(NC(=O)Cc2cccs2)C(=O)N2C(C(=O)O)=C(COC(N)=O)CS[C@@H]21 ; its log10 of kcat = -0.40

# compound CC(C)(O/N=C(\C(=O)N[C@@H]1C(=O)N2C(C(=O)[O-])=C(C[n+]3ccccc3)CS[C@H]12)c1csc(N)n1)C(=O)O ; its log10 of kcat = -0.52

Could you now look at the following compound, please?
# compound C[C@@H](O)[C@H]1C(=O)N2C(C(=O)O)=C(SCCNC=N)C[C@H]12 [IMIPENEM ANHYDROUS] ; its log10 of kcat = -1.05
